- MEASURED TARGET: T1, 9S-S2 PPR (synthetic construct)
- T1 chain: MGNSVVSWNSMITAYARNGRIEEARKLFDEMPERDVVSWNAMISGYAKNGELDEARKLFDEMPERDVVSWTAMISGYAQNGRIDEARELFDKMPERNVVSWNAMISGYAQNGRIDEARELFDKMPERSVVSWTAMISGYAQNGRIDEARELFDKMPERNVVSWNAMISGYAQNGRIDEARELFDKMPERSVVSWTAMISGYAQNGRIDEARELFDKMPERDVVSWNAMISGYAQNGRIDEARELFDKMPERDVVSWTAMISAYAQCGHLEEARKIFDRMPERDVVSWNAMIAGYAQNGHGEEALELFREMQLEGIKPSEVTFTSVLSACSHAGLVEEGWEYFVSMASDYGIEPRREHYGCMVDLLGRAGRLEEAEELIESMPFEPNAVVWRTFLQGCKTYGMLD
- PROTOCOL DESCRIPTION: fluorescence polarization; HRP: 50 mM Tris pH 8, 150 mM NaCl, 1 mM beta-mercaptoethanol, 50 ug/ml BSA, 3 ug/ml yeast RNA, 0.5% heparin; ITC and FP: Tris pH 8, 200 mM KCl, 5% glycerol; MST: 50 mM Tris pH 8, 200 mM NaCl, 1 mM DTT, BSA, heparin, 0.05% Tween 20
- MEASUREMENT CONDITIONS: protein: recombinant; tags: N-terminal TRX-His; label: fluorescein
ENDPOINT: pKd
Please keep in mind that pKd is minus log10 of the molar concentration; only the number is needed.

QUERY: Entry AUUACACGUG (ssRNA) [rpoA (FP)] : reported pKd = ?
RESULT: 8.12
